Entry source: paper PMC8041284

Provide the reported inhibition at 10 µM of each item.
molecular target: BTK (Homo sapiens); assay: biochemical; settings: read-out: BTK inhibition (%), 0.75 uM BTK, […] probe 3l, 15 min preincubation
Sequence (Q06187 402-655 limits assumed): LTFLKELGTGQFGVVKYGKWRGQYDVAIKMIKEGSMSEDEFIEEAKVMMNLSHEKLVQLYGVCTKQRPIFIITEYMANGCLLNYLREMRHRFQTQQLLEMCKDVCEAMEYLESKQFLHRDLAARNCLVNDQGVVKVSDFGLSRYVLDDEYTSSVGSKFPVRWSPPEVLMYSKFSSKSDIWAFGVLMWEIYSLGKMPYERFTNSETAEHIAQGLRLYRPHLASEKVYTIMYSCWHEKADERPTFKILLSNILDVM
Numbers only, in %.

Compound	Test Readout	Units Of Measure	Reported Value
S=C(N/N=C1\CCCc2cccnc21)N1CCN(c2ccccn2)CC1	inhibition at 10 µM	%	20.1
COc1cc(CCc2cc(NC(=O)c3ccc(N4C[C@@H](C)N[C@@H](C)C4)cc3)n[nH]2)cc(OC)c1	inhibition at 10 µM	%	58.6
C[C@H](N)C(=O)O	inhibition at 10 µM	%	-4.3
OC(CNc1ccccc1)Cn1c2ccc(Br)cc2c2cc(Br)ccc21 (stereo not drawn)	inhibition at 10 µM	%	44.8
Cc1ccc(C(C)C)cc1	inhibition at 10 µM	%	-20.1

Your task in this section: give inhibition at 10 µM for each listed record.
1. CCCC(=O)Nc1ncnc2c1ncn2[C@@H]1O[C@@H]2COP(=O)(O)O[C@H]2[C@H]1OC(=O)CCC
2. CN(C)CCOc1ccc(/C(=C(/CCCl)c2ccccc2)c2ccccc2)cc1

Found:
4.6
4.1

Your task in this section: give inhibition at 10 µM for each listed record.
1. CCCCCCCCCC(=O)N[C@@H](Cc1c[nH]c2ccccc12)C(=O)N[C@H](CC(N)=O)C(=O)N[C@@H](CC(=O)O)C(=O)N[C@@H]1C(=O)NCC(=O)N[C@@H](CCCN)C(=O)N[C@@H](CC(=O)O)C(=O)N[C@H](C)C(=O)N[C@@H](CC(=O)O)C(=O)NCC(=O)N[C@H](CO)C(=O)N[C@@H]([C@H](C)CC(=O)O)C(=O)N[C@@H](CC(=O)c2ccccc2N)C(=O)O[C@@H]1C
2. Cc1cc2c(F)c(Oc3ncnn4cc(OC[C@@H](C)OC(=O)[C@H](C)N)c(C)c34)ccc2[nH]1

Found:
1. -1.6
2. -44.8

* * *

target: UniProtKB Q06187; test: biochemical; conditions: read-out: BTK inhibition (%), 0.75 uM BTK, […] probe 3l, 15 min preincubation
Record class 1 whenever inhibition at 10 µM is at 20% or higher; record class 0 when lower.

Lookup: Decide: inhibition at 10 µM of COc1ccnc(C[S+]([O-])c2nc3ccc(-n4cccc4)cc3[nH]2)c1C (stereo not drawn) [PCM-0214937] >= 20%?
Found: class 1

Lookup: Decide: inhibition at 10 µM of O=C(O)c1ccc(NC(=O)[C@H](Cc2ccc(O)cc2)NC(=O)c2ccccc2)cc1 [PCM-0215250] >= 20%?
Found: class 0

Lookup: Decide: inhibition at 10 µM of CCOC(=O)c1csc(Nc2ccc(Cl)cc2)n1 [PCM-0215549] >= 20%?
Found: class 0

Lookup: Decide: inhibition at 10 µM of NC(=O)c1ccc[n+]([C@@H]2O[C@H](COP(=O)([O-])O)[C@@H](O)[C@H]2O)c1 [PCM-0216232] >= 20%?
Found: class 0

Lookup: Decide: inhibition at 10 µM of O=C(O)c1ccccc1 [PCM-0090294] >= 20%?
Found: class 0

Lookup: Decide: inhibition at 10 µM of C=CC(=O)Nc1cccc(Nc2nc(Nc3ccc(OCCOC)cc3)ncc2F)c1 [PCM-0095787] >= 20%?
Found: class 1

Lookup: Decide: inhibition at 10 µM of O=C(O)c1ccc(O)c(O)c1 [PCM-0215076] >= 20%?
Found: class 0

Lookup: Decide: inhibition at 10 µM of COc1ccc(-c2oc3c(CC=C(C)C)c(O[C@@H]4O[C@H](CO)[C@@H](O)[C@H](O)[C@H]4O)cc(O)c3c(=O)c2O[C@@H]2O[C@@H](C)[C@H](O)[C@@H](O)[C@H]2O)cc1 [PCM-0094858] >= 20%?
Found: class 0

Lookup: Decide: inhibition at 10 µM of CCOc1cc(CC(=O)N[C@@H](CC(C)C)c2ccccc2N2CCCCC2)ccc1C(=O)O [PCM-0086171] >= 20%?
Found: class 0

* * *

Provide the reported inhibition at 10 µM of each item.
molecular target: UniProt Q06187; test: biochemical; settings: read-out: BTK inhibition (%), 0.75 uM BTK, […] probe 3l, 15 min preincubation
Please report the result as a number followed by the unit.

// worked examples, inhibition at 10 µM included
> print(dat)
                                   molecule         test.readout  reported.value
1  Cc1ncc([N+](=O)[O-])n1CC(C)O (centres unmarked)  inhibition at 10 µM           -3.9%
2                            O=Cc1ccc(CO)o1  inhibition at 10 µM           -2.3%
3  CC(CCc1ccccc1)NCC(=O)c1ccc(O)c(C(N)=O)c1 (centres unmarked)  inhibition at 10 µM          -18.5%
4        CCCCN1CCCC[C@H]1C(=O)Nc1c(C)cccc1C  inhibition at 10 µM          -25.7%
5  COC(=O)[C@H]1[C@H]2C[C@@H]3c4[nH]c5cc(OC)ccc5c4CCN3C[C@H]2C[C@@H](OC(=O)c2cc(OC)c(OC)c(OC)c2)[C@@H]1OC  inhibition at 10 µM             35%
6  CC(=O)Cc1cc(=O)c2c(C)cc(O)c([C@@H]3O[C@H](CO)[C@@H](O)[C@H](O)[C@H]3O)c2o1  inhibition at 10 µM            3.9%

Your task in this section: give inhibition at 10 µM for each listed record.
1. CC(C)(O)CNc1nc(Nc2ccnc(C(F)(F)F)c2)nc(-c2cccc(C(F)(F)F)n2)n1
2. COc1cc2c(c(OC)c1OC)-c1c(cc3c(c1OC)OCO3)C[C@H](C)[C@](C)(O)[C@H]2OC(=O)c1ccccc1
3. O=c1ccn([C@@H]2O[C@H](COP(=O)(O)O)[C@@H](O)[C@H]2O)c(=O)[nH]1
4. O=C(/C=C/c1ccccc1)OCc1ccccc1
5. CC1(C)CC[C@]2(C(=O)O)[C@H](O)C[C@]3(C)C(=CC[C@@H]4[C@@]5(C)CC[C@H](O)[C@@](C)(C=O)[C@@H]5CC[C@]43C)[C@@H]2C1

Found:
1: 19.3%; 2: 3.9%; 3: -6.8%; 4: 6.9%; 5: -8.5%

* * *

molecular target: BTK (Homo sapiens); test: biochemical; settings: read-out: BTK inhibition (%), 0.75 uM BTK, […] probe 3l, 15 min preincubation
Record t whenever inhibition at 10 µM is at 10% or higher; record f when lower.

Lookup: Decide: inhibition at 10 µM of C[C@H](CCC(=O)NCCS(=O)(=O)O)[C@H]1CC[C@H]2[C@@H]3[C@H](O)C[C@@H]4C[C@H](O)CC[C@]4(C)[C@H]3CC[C@]12C >= 10%?
Found: f

Lookup: Decide: inhibition at 10 µM of Nc1nc(-c2nn(Cc3ccccc3F)c3ncccc23)ncc1C1CC1 >= 10%?
Found: f

Lookup: Decide: inhibition at 10 µM of CC(C)(C)C(=O)N1N=CC[C@H]1c1ccccc1 >= 10%?
Found: t

Lookup: Decide: inhibition at 10 µM of CC(C)(C)S(=O)(=O)c1ccc2nccc(Nc3n[nH]c4ccc(F)cc34)c2c1 >= 10%?
Found: t

Lookup: Decide: inhibition at 10 µM of COc1cc(C2Oc3ccc([C@H]4Oc5cc(O)cc(O)c5C(=O)[C@@H]4O)cc3OC2CO)ccc1O (stereo partly shown) >= 10%?
Found: t

Lookup: Decide: inhibition at 10 µM of CN(C)CCN(Cc1ccccc1)c1ccccn1 >= 10%?
Found: t

Lookup: Decide: inhibition at 10 µM of O=c1[nH]c(=O)c2[nH]cnc2[nH]1 >= 10%?
Found: f

Lookup: Decide: inhibition at 10 µM of C[C@H](CCC(=O)NCCS(=O)(=O)O)[C@H]1CC[C@H]2[C@@H]3[C@@H](O)C[C@@H]4C[C@H](O)CC[C@]4(C)[C@H]3CC[C@]12C >= 10%?
Found: f

Lookup: Decide: inhibition at 10 µM of C/C1=C\CC[C@]23O[C@H]2[C@@H](OC3=O)c2c(C)coc2C1 >= 10%?
Found: f

Lookup: Decide: inhibition at 10 µM of CC(C)(C)C(=O)OCOP(=O)(COCCn1cnc2c(N)ncnc21)OCOC(=O)C(C)(C)C >= 10%?
Found: f

Lookup: Decide: inhibition at 10 µM of CCCCCCCCCCCCCCCCO >= 10%?
Found: f

Lookup: Decide: inhibition at 10 µM of C=CC(=O)Nc1cccc(Sc2nc(Nc3ccc(N4CCN(C)CC4)cc3)ncc2Cl)c1 >= 10%?
Found: t

Lookup: Decide: inhibition at 10 µM of Cc1ccccc1C(=O)Nc1ccc(C(=O)N2CCCC(O)c3cc(Cl)ccc32)c(C)c1 (stereo not shown) >= 10%?
Found: f

Lookup: Decide: inhibition at 10 µM of CCOC(=O)[C@H](CCc1ccccc1)N[C@@H](C)C(=O)N1CCC[C@H]1C(=O)O >= 10%?
Found: f

Lookup: Decide: inhibition at 10 µM of CCC(C)n1ncn(-c2ccc(N3CCN(c4ccc(OC[C@H]5CO[C@](Cn6cncn6)(c6ccc(Cl)cc6Cl)O5)cc4)CC3)cc2)c1=O (stereo partly shown) >= 10%?
Found: f

Lookup: Decide: inhibition at 10 µM of C=C1C(=O)O[C@H]2[C@H]1CC/C(C)=C/CC[C@@]1(C)O[C@@H]21 >= 10%?
Found: t

Lookup: Decide: inhibition at 10 µM of NC(=O)c1ccc[n+]([C@@H]2O[C@H](COP(=O)([O-])OP(=O)(O)OC[C@H]3O[C@@H](n4cnc5c(N)ncnc54)[C@H](O)[C@@H]3O)[C@@H](O)[C@H]2O)c1 >= 10%?
Found: f

Lookup: Decide: inhibition at 10 µM of COc1cc(N2CCN(C)CC2)ccc1Nc1ncc2c(n1)N(C)c1ccccc1C(=O)N2 >= 10%?
Found: t

Lookup: Decide: inhibition at 10 µM of CC(C)(C)NCC(O)c1cc(O)cc(O)c1 (stereo not shown) >= 10%?
Found: f
